The measurements presented in this section are drawn from ChEMBL document CHEMBL4020736.

Assay: Clearance in human liver microsomes at 1 uM after 60 mins in presence of NADPH by UPLC analysis
Assay type: ADME, microsome
Details: read-out: CLH
microsomal CLint at 1 µM listing for selected compounds.
METRIC: microsomal CLint at 1 µM

>>> observed_result("CC[C@H]1[C@@H](O)[C@H](C)C(=O)N1c1ccc(C#N)c(Cl)c1")
"2 µL/min/mg"
>>> observed_result("C[C@@H]1N(c2ccc(C#N)c(Cl)c2)C(=O)C[C@]1(C)O")
"3 µL/min/mg"
>>> observed_result("C[C@H]1[C@@H](O)[C@H](Cc2ccccc2)C(=O)N1c1ccc(C#N)c(Cl)c1")
"152 µL/min/mg"
>>> observed_result("C[C@H]1[C@@H](O)CC(=O)N1c1ccc(C#N)c(Cl)c1")
"6 µL/min/mg"
>>> observed_result("CC[C@@H]1C(=O)N(c2ccc(C#N)c(Cl)c2)[C@@H](C)[C@H]1O")
"5 µL/min/mg"
>>> observed_result("CC[C@H]1[C@@H](O)CC(=O)N1c1ccc(C#N)c(C(F)(F)F)c1")
"1 µL/min/mg"
>>> observed_result("C[C@H]1[C@@H](O)C(C)(C)C(=O)N1c1ccc(C#N)c(Cl)c1")
"1 µL/min/mg"
>>> observed_result("Cc1c(N2CC[C@](C)(O)[C@@H]2C)ccc(C#N)c1F")
"12 µL/min/mg"
